Ref: PubChem BioAssay AID598

Parameter: viability. Scope: all listed entries.
# MEASUREMENT DESCRIPTION: proliferation blockers of H69AR lung cancer cells, primary screen, cell-based, human, 86K library (AID 598);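 note: multidrug resistant small cell line overexpressing MRP-1 efflux transporter; 100% = mean luminescence of untreated control wells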
# RECORDED CONDITIONS: H69AR lung tumor viability, ATP luminescence, 72 h; at 10 µM; hits give low values
The campaign covered roughly 85,000 compounds. About 5,100 (6%) were called active. Only a selection was taken, and actives are over-represented in it overall.

{"COMPOUND": "N#Cc1c(NC(=O)CSc2nc3ccccc3c(=O)n2Cc2ccco2)sc2c1CCCC2", "viability / %": 3.86}
{"COMPOUND": "CCn1c(SCC(=O)Nc2nc(C)cs2)nnc1C(C)NC(=O)c1ccccc1 (stereo unspecified)", "viability / %": 88.1}
{"COMPOUND": "COc1ccc(-n2c(SCC(=O)Nc3sc4c(c3C#N)CCCC4)nnc2-c2ccc(O)cc2)cc1", "viability / %": 11.8}
{"COMPOUND": "COc1ccc(-c2nnc(SCC(=O)c3ccco3)n2-c2ccccc2)cc1", "viability / %": 91.9}
{"COMPOUND": "O=C(c1ccccc1Oc1ccccc1)N1CCN(c2ccc(F)cc2)CC1", "viability / %": 100}
{"COMPOUND": "COC(=O)c1c(NC(=O)CSc2nncs2)sc2c1CCCCC2", "viability / %": 50.8}
{"COMPOUND": "CCOc1cc(C(=S)N2CCOCC2)ccc1O", "viability / %": 85.1}
{"COMPOUND": "O=C(Nc1ccccc1)c1ccc2c(c1)OCO2", "viability / %": 82.3}
{"COMPOUND": "OC(CN1C2=NCCCN2c2ccccc21)c1ccc(Br)cc1 (stereo unspecified)", "viability / %": 86.5}
{"COMPOUND": "COc1ccc(C2C(C(C)=O)=C(O)C(=O)N2Cc2cccnc2)cc1 (stereo unspecified)", "viability / %": 99.2}
{"COMPOUND": "CCCCN(CCCC)C(=O)CCS(=O)(=O)c1ccc2c(c1)n(C)c(=O)c(=O)n2C", "viability / %": 70.2}

---

# MEASUREMENT DESCRIPTION: proliferation blockers of H69AR lung cancer cells, primary screen, cell-based, human, 86K library (AID 598);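 note: multidrug resistant small cell line overexpressing MRP-1 efflux transporter; 100% = mean luminescence of untreated control wells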
# RECORDED CONDITIONS: H69AR lung tumor viability, ATP luminescence, 72 h; at 10 µM
Out of some 85,000 compounds screened, about 5,100 (6%) were called active.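 The calls were made as follows: active = viability at or below 40%; inactive = viability above 40%.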 This excerpt belongs to a sample that is enriched for actives.
Possible outcomes: 1 (yes) for active, 0 (no) for inactive

{"MOLECULE": "CCC(=O)Nc1sc(C(=O)N2CCCCC2)c(C)c1C#N", "CLASS LABEL": "0 (no)"}
{"MOLECULE": "COC(=O)c1ccc(CSc2ccc3nnc(-c4ccccc4)n3n2)o1", "CLASS LABEL": "0 (no)"}
{"MOLECULE": "CCCC(=O)N1c2ccccc2NC2=C(C(=O)CCC2)C1c1ccc(F)cc1 (stereo unspecified)", "CLASS LABEL": "0 (no)"}
{"MOLECULE": "CCn1nnnc1SCC(=O)c1ccc(C)cc1C", "CLASS LABEL": "0 (no)"}
{"MOLECULE": "CNC(=O)c1nnc(Cc2ccc(Cl)cc2)o1", "CLASS LABEL": "0 (no)"}
{"MOLECULE": "COc1ccc(N(CC(=O)NC2CCCCC2)C(=O)CNC(=O)c2ccco2)c(OC)c1", "CLASS LABEL": "0 (no)"}
{"MOLECULE": "O=C1CCCC2=C1C(c1cccs1)n1nc(SCc3ccccc3)nc1N2 (stereo unspecified)", "CLASS LABEL": "1 (yes)"}
{"MOLECULE": "O=C(COc1ccc(S(=O)(=O)NCc2ccccc2)cc1)N1CCOCC1", "CLASS LABEL": "0 (no)"}
{"MOLECULE": "Cc1ccc(N(CC(=O)Nc2cccc(N(C)S(C)(=O)=O)c2)S(C)(=O)=O)cc1", "CLASS LABEL": "0 (no)"}
{"MOLECULE": "CN(Cc1nc2ccccc2c(=O)[nH]1)Cc1cc(=O)oc2ccc3ccccc3c12", "CLASS LABEL": "0 (no)"}
{"MOLECULE": "CC(C)C(=O)N1c2ccccc2NC2=C(C(=O)CCC2)C1c1ccc(N(C)C)cc1 (stereo unspecified)", "CLASS LABEL": "0 (no)"}
